Exercise: state measured IC50 for each of the compounds provided.
assay-target: Amyloid-beta precursor protein (Homo sapiens)
Sequence (P05067 whole entry): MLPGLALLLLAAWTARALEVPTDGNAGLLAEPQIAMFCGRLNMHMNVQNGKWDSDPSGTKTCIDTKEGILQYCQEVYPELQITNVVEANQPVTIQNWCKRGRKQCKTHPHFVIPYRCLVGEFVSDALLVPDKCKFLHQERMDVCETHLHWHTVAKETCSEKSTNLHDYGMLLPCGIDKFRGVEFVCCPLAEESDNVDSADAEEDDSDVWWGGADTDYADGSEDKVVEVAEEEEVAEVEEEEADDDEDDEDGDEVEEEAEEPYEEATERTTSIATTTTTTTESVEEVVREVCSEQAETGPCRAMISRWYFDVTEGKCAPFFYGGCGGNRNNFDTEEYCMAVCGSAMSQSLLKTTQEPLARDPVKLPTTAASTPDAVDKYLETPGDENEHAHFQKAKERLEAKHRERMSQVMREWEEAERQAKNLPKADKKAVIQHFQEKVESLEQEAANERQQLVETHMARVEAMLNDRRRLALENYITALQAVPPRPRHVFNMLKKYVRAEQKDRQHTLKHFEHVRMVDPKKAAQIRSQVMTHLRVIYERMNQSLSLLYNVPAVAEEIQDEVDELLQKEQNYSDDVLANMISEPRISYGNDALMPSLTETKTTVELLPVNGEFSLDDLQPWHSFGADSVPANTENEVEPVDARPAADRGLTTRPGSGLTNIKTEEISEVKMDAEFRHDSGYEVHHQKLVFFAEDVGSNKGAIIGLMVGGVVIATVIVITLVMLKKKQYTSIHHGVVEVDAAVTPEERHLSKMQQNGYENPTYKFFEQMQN
measurement-protocol: Inhibition of amyloid beta (1 to 42) (unknown origin) aggregation after 48 hrs by thioflavin T fluorescence assay
One number for each entry, in µM.

In the examples that follow, each entry is paired with its recorded IC50.
[[record]]
smiles_record = "Oc1ccc(-c2cc(-c3c(O)cccc3O)[nH]n2)cc1O"
assay_target = "Amyloid-beta precursor protein (Homo sapiens)"
scale_unit = "µM"
measurement = 1.3

[[record]]
smiles_record = "Oc1ccc(-c2cc(-c3c(O)cccc3O)[nH]n2)cc1"
assay_target = "Amyloid-beta precursor protein (Homo sapiens)"
scale_unit = "µM"
measurement = 15.8

[[record]]
smiles_record = "COc1cc(-c2cc(-c3c(O)cccc3O)[nH]n2)cc(OC)c1O"
assay_target = "Amyloid-beta precursor protein (Homo sapiens)"
scale_unit = "µM"
measurement = 2.9


Please find the next compound below.
Assign IC50 to the following record: COc1cc(-c2cc(-c3c(O)cccc3O)[nH]n2)ccc1O
4.3
